# Test system: L1210 leukemia
# Measurement Description: Antitumor activity in BDF1 mice inoculated with L1210 leukemia cells (Table 6)
# Assay type: in vivo
# Condition Summary: 0.6 mg./kg./day i.p., once daily for 10 days
Property: Antitumor Activity (T/C, prolongation rate of survival day) (%)

1) COc1cccc2c1C(=O)c1c(O)c3c(c(O)c1C2=O)C[C@@](O)(C(C)=O)C[C@@H]3O[C@H]1C[C@H](N)[C@H](OC2CCCCO2)[C@H](C)O1 (single isomer, unassigned; isomer b) [4'-O-PDb] :: 115
2) COc1cccc2c1C(=O)c1c(O)c3c(c(O)c1C2=O)C[C@@](O)(C(=O)CO)C[C@@H]3O[C@H]1C[C@H](N)[C@H](OC2CCCCO2)[C@H](C)O1 (single isomer, unassigned; isomer a) [4'-O-PAa] :: 187
3) COc1cccc2c1C(=O)c1c(O)c3c(c(O)c1C2=O)C[C@@](O)(C(=O)COC1CCCCO1)C[C@@H]3O[C@H]1C[C@H](N)[C@H](OC2CCCCO2)[C@H](C)O1 (single isomer, unassigned; isomer a) [4',14-di-O-PAa] :: 96
4) COc1cccc2c1C(=O)c1c(O)c3c(c(O)c1C2=O)C[C@@](O)(C(=O)COC1CCCCO1)C[C@@H]3O[C@H]1C[C@H](N)[C@H](OC2CCCCO2)[C@H](C)O1 (single isomer, unassigned; isomer b) [4',14-di-O-PAb] :: 103
5) COc1cccc2c1C(=O)c1c(O)c3c(c(O)c1C2=O)C[C@@](O)(C(C)=O)C[C@@H]3O[C@H]1C[C@H](N)[C@H](OC2CCCCO2)[C@H](C)O1 (single isomer, unassigned; isomer a) [4'-O-PDa] :: 115
6) COc1cccc2c1C(=O)c1c(O)c3c(c(O)c1C2=O)C[C@@](O)(C(=O)COC1CCCCO1)C[C@@H]3O[C@H]1C[C@H](N)[C@H](O)[C@H](C)O1 (stereo partly shown) [Example 14-O-PA, 14-O-tetrahydropyranyl adriamycin] :: 113
7) COc1cccc2c1C(=O)c1c(O)c3c(c(O)c1C2=O)C[C@@](O)(C(=O)CO)C[C@@H]3O[C@H]1C[C@H](N)[C@H](OC2CCCCO2)[C@H](C)O1 (single isomer, unassigned; isomer b) [4'-O-PAb] :: 293

* * *

# Test system: L1210 leukemia
# Measurement Description: Antitumor activity in BDF1 mice inoculated with L1210 leukemia cells (Table 6)
# Type: in vivo
# Condition Summary: 5 mg./kg./day i.p., once daily for 10 days
Property: Antitumor Activity (T/C, prolongation rate of survival day)

1) COc1cccc2c1C(=O)c1c(O)c3c(c(O)c1C2=O)C[C@@](O)(C(=O)CO)C[C@@H]3O[C@H]1C[C@H](N)[C@H](OC2CCCCO2)[C@H](C)O1 (single isomer, unassigned; isomer b) [4'-O-PAb] :: > 375%
2) COc1cccc2c1C(=O)c1c(O)c3c(c(O)c1C2=O)C[C@@](O)(C(C)=O)C[C@@H]3O[C@H]1C[C@H](N)[C@H](OC2CCCCO2)[C@H](C)O1 (single isomer, unassigned; isomer a) [4'-O-PDa] :: > 320%
3) COc1cccc2c1C(=O)c1c(O)c3c(c(O)c1C2=O)C[C@@](O)(C(C)=O)C[C@@H]3O[C@H]1C[C@H](N)[C@H](OC2CCCCO2)[C@H](C)O1 (single isomer, unassigned; isomer b) [4'-O-PDb] :: > 320%
4) COc1cccc2c1C(=O)c1c(O)c3c(c(O)c1C2=O)C[C@@](O)(C(=O)CO)C[C@@H]3O[C@H]1C[C@H](N)[C@H](O)[C@H](C)O1 [Adriamycin, adriamycin, reference compound] :: toxic
